Experiment: S. pombe growth modifiers, basal conditions – strain 972, OD600, 24 h, no modulator, primary screen (AID 1090);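 further: basal condition with compound alone and no growth modifier present; test concentration not given here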
Settings: S. pombe 972 growth, called active from +8 up or from −8 down
Activity calls are given as the source filed them.
Would you mind answering with one of these outcomes? True for active, False for inactive

Entry CCCC[C@@H]1C[C@H]1[C@@H](NC(=O)c1ccccc1)c1ccccc1 : call = ?
False

Follow-up item: COc1ccc([Si](C)(C)[C@H]2[C@H](CCO)O[C@@]3(C(=O)N(Cc4cccc(N5C(=O)c6cccc7cccc5c67)c4)c4ccccc43)[C@@H]2C)cc1
False

Follow-up item: C=CCOC(=O)[C@H]1[C@@H]2C(=O)O[C@@H](c3ccccc3)[C@@H](c3ccccc3)N2[C@@H](c2ccc(OCCOC(=O)[C@@H]3C[C@@H]4C(=O)NCC(=O)N4[C@@H]3c3ccc(O)cc3)cc2)[C@]12C(=O)Nc1ccc(I)cc12
False

Follow-up item: C=C[C@H](OC)[C@@H](OC(=O)Nc1ccc(SC)cc1)c1ccc(OCCO)cc1
False

Follow-up item: CO[C@H]1O[C@H](CO)[C@@H](OC(=O)Nc2ccc(C(F)(F)F)cc2)[C@H](OC(=O)Nc2ccccc2)[C@@H]1OC(=O)Nc1ccccc1
False

Follow-up item: CN(C)CCCCCCNC(=O)[C@@H]1C[C@@H]2C(=O)N[C@@H](Cc3ccccc3)C(=O)N2[C@@H]1c1cccc(OCCO)c1
False

Follow-up item: O=C(NCC(O)CO)[C@@]1(Cc2ccccc2)N=C(c2ccc(OCCCO)cc2)O[C@H]1c1ccccc1 (some centres not stated)
False

Follow-up item: COCCOC(=O)N1C(=O)[C@@]2(c3cc(C#CCC(C(=O)OC)C(=O)OC)ccc31)[C@H](c1ccc(OCCO)cc1)N1[C@H](c3ccccc3)[C@H](c3ccccc3)OC(=O)[C@H]1[C@@H]2C(=O)NC[C@H](O)c1ccccc1
False

Follow-up item: CC1CC/C=C\[C@H]2OC34C=CCN(CCN5CCOCC5)C(=O)[C@H]3N(CCCCCO)C(=O)[C@@H]4C2C(=O)O1 (some centres not stated)
False

Follow-up item: COC(=O)[C@@]1(Cc2ccc(F)cc2)[C@H]2c3cc(C(=O)N(C)C)n(CCc4c[nH]c5ccc(OC)cc45)c3C[C@H]2CN1C(=O)c1ccccc1
False

Follow-up item: O=C1OCCC=C[C@H]2OC34C=CCN(c5ccc6ccccc6c5)C(=O)[C@H]3N(CCCCCCO)C(=O)[C@@H]4C12 (some centres not stated)
False

Follow-up item: NC(=O)NCC#Cc1ccc2c(c1)[C@]1(C(=O)N2)[C@H](c2ccccc2OCCO)N2[C@H](c3ccccc3)[C@H](c3ccccc3)OC(=O)[C@H]2[C@@H]1C(=O)N1CCCCCCC1
False

Follow-up item: CCCNC(=O)[C@@]1(C)c2ccccc2C(=O)N(Cc2ccc(OC(F)(F)F)cc2)[C@H]1c1ccc(CO)cc1
False

Follow-up item: C=CCC(OC(C)=O)[C@@H]1[C@@H](N(Cc2cc3ccccc3o2)C(=O)c2cccc3ccccc23)c2cc(OCCCO)ccc2N1C(=O)Cc1ccc2ccccc2c1 (some centres not stated)
False

Follow-up item: Cc1ccc(S(=O)(=O)N2CC(C(=O)O)=CCC2c2ccccc2)cc1 (configuration not stated)
False

Follow-up item: O=C1C[C@@](C(=O)O)(c2ccc([N+](=O)[O-])cc2)[C@@H](c2ccc(CO)cc2I)N1CC12CC3CC(CC(C3)C1)C2
False

Follow-up item: COc1ccc(C(=O)Nc2cccc(CN3C(=O)[C@@]4(O[C@@H](CC(=O)N5Cc6ccccc6C[C@H]5CO)[C@H]([Si](C)(C)c5ccc(OC)cc5)[C@H]4C)c4ccccc43)c2)cc1
False

Follow-up item: CN(C)CCCN1C(=O)[C@@]2(c3ccc([N+](=O)[O-])cc3)CC(=O)N(C3CCCCC3)[C@@H]2c2ccc(CO)cc21
False

Follow-up item: Cc1ccc(F)cc1S(=O)(=O)N[C@@H]1CCN(Cc2ccc(C(F)(F)F)cc2)C1
True

Follow-up item: O=C1O[C@H](c2ccccc2)[C@H](c2ccccc2)N2[C@H]1[C@@H](C(=O)NC[C@H](O)c1ccccc1)[C@]1(C(=O)Nc3ccc(C#CC4=CCCCC4)cc31)[C@H]2c1ccc(O)cc1
False

Follow-up item: O=C1[C@H]2C=C(Br)[C@H](C[C@@H]2OCCOCCO)[C@@]12CO2
False

Follow-up item: C=C(CCCC)C(=O)CC[C@H](OC(C)=O)c1ccc(CO)o1
False

Follow-up item: CC(=O)NCCCC[C@@H]1NC(=O)[C@@H]2C[C@H](C(=O)NCc3ccc(F)cc3)[C@H](c3ccc(O)cc3)N2C1=O
False

Follow-up item: CN1C(=O)C2C=CC(C(O)C(c3ccccc3)c3ccccc3)N(Nc3ccccc3)C2C1=O (configuration not stated)
False

Follow-up item: COc1ccc(C#Cc2ccc3c(c2)[C@]2(C(=O)N3)[C@H](C(=O)N3CCc4cc(OC)c(OC)cc4C3)[C@H]3C(=O)O[C@H](c4ccccc4)[C@H](c4ccccc4)N3[C@@H]2c2ccc(OCCO)cc2)cc1
False

Follow-up item: COc1ccc(C(=O)Nc2cccc(CN3C(=O)[C@@]4(O[C@@H](CCn5cc([C@H](O)c6ccccc6)nn5)[C@H]([Si](C)(C)c5ccc(OC)cc5)[C@H]4C)c4ccccc43)c2)cc1
False

Follow-up item: CCCNC(=O)[C@@]1(C)c2ccccc2C(=O)N(Cc2cc(F)cc(C(F)(F)F)c2)[C@H]1c1ccc(CO)cc1
False

Provenance of the data: PubChem BioAssay
